Test system: BDF1 mice, B16 melanoma ip, median survival T/C
Experiment: NCI In Vivo Anticancer Drug Screen. Data for tumor model B16 Melanoma (intraperitoneal) in B6D2F1 (BDF1) mice
Conditions: endpoint: median survival time; dose: 50.0 mg/kg/injection; schedule: Q01DX009 (ip); vehicle: saline
Inconclusive results and toxic doses are left out. The calls were made as follows: active = survival T/C of 150% or more; inactive = T/C below 125% in these data. Peptide text beside a SMILES is read from it. * marks the point of attachment. Boc = CC(C)(C)OC(=O)*
Outcome codes: 1 (yes) = active, 0 (no) = inactive

1) OC1CCC(O)C1(Cl)Cl (stereo not given)
0 (no)
2) CC(C)(C)OC(=O)NCC(=O)NCC(=O)O (Boc-Gly-Gly-OH)
0 (no)
3) Nc1ncnc2c1ncn2C1OCC(O)C1O (stereo not given)
0 (no)
4) OC(c1ccccc1)(c1ccccc1)C1CC1c1ccncc1 (stereo not given)
0 (no)
5) Cc1cc(C)[nH]c(=O)n1
0 (no)
6) CCCCCCCCCCN1CCC(N2CCCCC2)CC1
0 (no)
7) C[N+](C)([O-])CCC=C1c2ccccc2CCc2ccccc21
0 (no)
8) COP(=O)(OC)OCc1cnc(SC)nc1N
0 (no)
9) CN(C)N=Nc1ccc(C(=O)O)cc1
0 (no)
10) CN(C)CCCN1Cc2ccccc2Cc2ccccc21
0 (no)
11) C/C=C1/CC(C)C(C)(O)C(=O)OCC2CCN3CCC(OC1=O)C23 (stereo not given)
0 (no)
12) Cn1ccccc1=O
0 (no)
13) Cc1cc(O)ccc1[N+](=O)[O-]
0 (no)
14) CN(C)CCCN1c2ccccc2CCc2ccccc21
0 (no)
15) O=C(O)c1cc2ccccc2cn1
0 (no)
16) NNCCc1ccccc1
0 (no)
17) NCC1OC(OC2C(N)CC(N)C(O)C2OC2OC(CO)C(O)C2O)C(N)C(O)C1O (stereo not given)
0 (no)
18) CCN(CC)CCNCCN
0 (no)
19) CC(N)Cc1cn(C)c2ccccc12 (stereo not given)
0 (no)
20) NC(=S)N/N=C\c1nccc2c(N)cccc12
1 (yes)
21) C#CCN(C)Cc1ccccc1
0 (no)
22) CC(=O)/C(N=O)=C(/C)O
0 (no)
23) CC(C)=CCNc1ncnc2c1ncn2C1OC(CO)C(O)C1O (stereo not given)
0 (no)
24) CCCCN1CCNCC1
0 (no)
25) OCCN1CCN(CCCN2c3ccccc3C=Cc3ccccc32)CC1
0 (no)
26) CN1CCC(CN2c3ccccc3Sc3ccccc32)C1 (stereo not given)
0 (no)
27) CC(=O)OC1C(CO)OC2C1Oc1nc(=N)c(F)cn12 (stereo not given)
0 (no)
28) CN(C)CC(Cl)CCl (stereo not given)
0 (no)
29) CC(Cc1ccccc1)NC1CC2CCC1C2 (stereo not given)
0 (no)
30) CN(CO)c1nc(N(C)CO)nc(N(C)CO)n1
0 (no)

====

System: BDF1 mice, B16 melanoma ip, median survival T/C
Assay: NCI In Vivo Anticancer Drug Screen. Data for tumor model B16 Melanoma (intraperitoneal) in B6D2F1 (BDF1) mice
Conditions: endpoint: median survival time; dose: 25.0 mg/kg/injection; schedule: Q01DX009 (ip); vehicle: saline with Tween-80
Inconclusive results and toxic doses are left out. The calls were made as follows: active = survival T/C of 150% or more; inactive = T/C below 125% in these data.
Outcome codes: 1 = active, 0 = inactive

1) N=C(N)c1ccc(N=NNc2ccc(C(=N)N)cc2)cc1
0
2) CC(OCc1ccccc1)C(NC(=O)OC(C)(C)C)C(=O)O (stereo unspecified)
0
3) Cc1ccc(N)c(Br)c1
0
4) CCCCCCCCCCOCCCCCCCCCC
0
5) CCCC[P+](CCCC)(CCCC)C(C)C
0
6) CCOC(=O)/N=[N+](\[O-])c1ccccc1
0
7) CCOC1CCC2C(CCC(/C=C/c3ccc(O)c4ncccc34)N2C)C1 (stereo unspecified)
0
8) Nc1nc(=S)c2n[nH]nc2[nH]1
0
9) CS(=O)(=O)OCCC(=O)N1CCN(C(=O)CCOS(C)(=O)=O)CC1
1
10) CCN=NNc1ccc(C)cc1
0
11) Nc1ccc(N=Nc2ccccc2)c(N)c1
0
12) Cc1cc(C)c(CN)cc1CN
0
13) CCCC[N+](CCCC)(CCCC)CCCC.Cc1ccc([SH2+])c([SH2+])c1.Cc1ccc([SH2+])c([SH2+])c1.[Fe+3]
0
14) Cc1ccc(S(=O)(=O)Cl)cc1Cl
0
15) C1COC(NC2CC3CCC2C3)=N1 (stereo unspecified)
0
16) c1ccc(CCN2CCC(CCc3c[nH]c4ccccc34)CC2)cc1
0
17) CN=C(N)N/N=C(\C)c1ccc2oc3ccc(/C(C)=N/NC(N)=NC)cc3c2c1
0
18) C/C=C/CNc1ccc(C)cc1
0
19) CC(=O)ON=C1C=CC(=C(C#N)c2ccccc2)C=C1
0
20) CC(=O)c1ccc(Oc2ccc(/C(C)=N\N=C(N)N)cc2)cc1
0
21) NC(=S)N/N=C\c1nccc2c(N)cccc12
1
22) CCCC(C)C/C(C)=C/C(C)(C)C(CC(=O)N1CCOCC1)C(=O)O (stereo unspecified)
0
23) ClCCN(CCCl)CCCN1c2ccccc2Sc2ccc(Cl)cc21
0
24) CNc1ccc(O)cc1
0
25) CCOC(=O)c1ccc(OC(=O)Nc2ccccc2)cc1
0
26) Clc1ccc(CN2COc3c(ccc4cccnc34)C2)cc1Cl
0
27) CN(N=O)C(=O)Nc1c[nH]c(=O)[nH]c1=O
1
28) C[C@]12CC[C@H](O)C[C@@]1(O)CC[C@@H]1[C@@H]2CC[C@]2(C)[C@@H](c3ccc(=O)oc3)CC[C@]12O
0
29) CC(=O)NNC(=O)c1ccccn1
0
30) Cc1cc(C)cc(OC(=O)/C=C/C(=O)Oc2cc(C)cc(C)c2)c1
0
31) COC1=CC(=O)C(OC)=C(OC)C1=O
0
32) CCC(=O)O[C@H]1CC[C@H]2[C@@H]3[C@@H](C)CC4=CC(=O)CC[C@]4(C)[C@H]3CC[C@]12C
0
33) CN(C)CCCN=Cc1ccc(O)cc1O.CN(C)CCCN=Cc1ccc(O)cc1O.[Ni+2]
0
34) CCCC(C)c1ccccc1O (stereo unspecified)
0
35) CC(C)CC(NC(=O)OC(C)(C)C)C(=O)ON1C(=O)CCC1=O (stereo unspecified)
0
36) c1ccc2c(CC3=NCCN3)cccc2c1
0
37) CC(=O)NC(CC(C)C)C(=O)O (stereo unspecified)
0
38) CCC(=O)Nc1cc(C(F)(F)F)ccc1Cl
0
39) O=C(NC1CCCCC1)OCc1c(COC(=O)NC2CCCCC2)c(-c2ccc(Cl)c(Cl)c2)n2c1CCC2
1
40) ClC1=C(Cl)C2(Cl)C3C(Cl)C(Cl)CC3C1(Cl)C2(Cl)Cl (stereo unspecified)
0
41) CCN(CC)c1nc(N(CC)CC)nc(N(CC)CC)n1
0
42) O=C(Nc1ccccc1)c1ccc(Cl)c([N+](=O)[O-])c1
0
43) CC(=O)c1ccccc1C
0
44) CC(=O)ON(C(C)=O)c1ccc(C(N)=O)cc1
0
45) OC1CCCC2CCCNC12 (stereo unspecified)
0
46) NC(=S)n1cccn1
0

The origin of these recorded values is PubChem BioAssay AID192.
